target: muscarinic cholinergic receptor; assay: [^3 H]-Cis-methyldioxolane (^3 H-CD) Binding Assay (High Affinity), rat cerebral cortex homogenate; details: 1.0 nM ^3 H-CD, 25° C., 120 minutes, pH 7.4
Assay endpoint: IC50 (µM)

Please review the following examples before continuing.
**Q:** Form field: reported IC50 of CSc1sccc1C#CCN1CCCC1
**A:** 0.031

**Q:** Form field: reported IC50 of CSc1ccsc1C#CC[N+](C)(C)C
**A:** 0.00592

**Q:** Form field: reported IC50 of CSc1sccc1C#CCN1CCCCC1
**A:** 0.0311

**Q:** Form field: reported IC50 of CSc1cscc1C#CC[N+](C)(C)C
**A:** 0.121

**Q:** Form field: reported IC50 of CSc1sccc1C#CCN(C)C
**A:** 0.942

**Q:** Form field: reported IC50 of CSc1sccc1C#CC[N+](C)(C)C
**A:** 0.0523

**Q:** Form field: reported IC50 of CSc1ccsc1C#CCN1CCCCC1
**A:** 0.122

**Q:** Form field: reported IC50 of CSc1ccsc1C#CCN(C)C
**A:** 1.12

I. CSc1ccsc1C#CCN1CCCC1
II. CSc1cscc1C#CCN(C)C
III. CSc1cscc1C#CCN1CCCC1
**Q:** Rank ascending by IC50. Response format: the labels, sorted as the prompt asks.
**A:** I, III, II
(I: 0.016 µM, III: 0.366 µM, II: 4.83 µM)

----------
target: muscarinic cholinergic receptor; experiment: [^3 H] Quinuclidinyl Benzilate (^3 H-QNB) Binding Assay, rat cerebral cortex homogenate; details: rat cerebral cortex, 0.25 nM ^3 H-QNB, 25° C., pH 7.4; hydrochloride
pIC50: −log10 of the molar value. Counter-ions that a name gives are not always drawn.
Assay endpoint: pIC50

**Q:** Form field: reported pIC50 of CSc1ccsc1C#CCN(C)C [hydrochloride]
**A:** 4.39

**Q:** Form field: reported pIC50 of CSc1cscc1C#CCN1CCCC1 [hydrochloride]
**A:** 5.64

**Q:** Form field: reported pIC50 of CSc1ccsc1C#CCN1CCCCC1 [hydrochloride]
**A:** 5.68

**Q:** Form field: reported pIC50 of CSc1sccc1C#CCN(C)C [hydrochloride]
**A:** 4.63

A. CSc1cscc1C#CCN(C)C [hydrochloride]
B. CSc1sccc1C#CCN1CCCCC1 [hydrochloride]
C. CSc1sccc1C#CCN1CCCC1 [hydrochloride]
**Q:** List from greatest to least pIC50. Response format: the labels, sorted as the prompt asks.
**A:** C, B, A
(C: 6.09, B: 5.66, A: 4.17)

----------
target: muscarinic cholinergic receptor; assay: [^3 H] Quinuclidinyl Benzilate (^3 H-QNB) Binding Assay, rat cerebral cortex homogenate; conditions: pH 7.4
Assay endpoint: pIC50
Entry type: numeric. Quantity: pIC50, the -log10 of concentration in molar units.

**Q:** Form field: reported pIC50 of CSc1cscc1C#CC[N+](C)(C)C
**A:** 5.04

----------
molecular target: muscarinic cholinergic receptor; test: [^3 H] Quinuclidinyl Benzilate (^3 H-QNB) Binding Assay, rat cerebral cortex homogenate; conditions: rat cerebral cortex, 0.25 nM ^3 H-QNB, 25° C., pH 7.4
pIC50: −log10 of the molar value.
Assay endpoint: pIC50

Please review the following examples before continuing.
**Q:** Form field: reported pIC50 of CSc1cscc1C#CCN1CCCC1
**A:** 5.48

**Q:** Form field: reported pIC50 of CSc1sccc1C#CC[N+](C)(C)C
**A:** 5.46

**Q:** Form field: reported pIC50 of CSc1ccsc1C#CCN(C)C
**A:** 4.46

**Q:** Form field: reported pIC50 of CSc1sccc1C#CCN1CCCCC1
**A:** 5.94

**Q:** Form field: reported pIC50 of CSc1ccsc1C#CCN1CCCCC1
**A:** 5.71

**Q:** Form field: reported pIC50 of CSc1sccc1C#CCN1CCCC1
**A:** 6.04

1. CSc1ccsc1C#CC[N+](C)(C)C
2. CSc1cscc1C#CCN(C)C
**Q:** Lower pIC50: 1 or 2 ? Mark your selection by writing its label.
**A:** 2
(2: 3.62, 1: 5.22)

1. CSc1ccsc1C#CCN1CCCC1
2. CSc1sccc1C#CCN(C)C
**Q:** Lower pIC50: 1 or 2 ? Mark your selection by writing its label.
**A:** 2
(2: 4.67, 1: 5.86)

Just for reference, patent US5025099A is where these values come from.
